# credit: PubChem BioAssay AID1963448

system: 616215-338-R-J1-PDC complex spheroid growth, % test/control; test: Anticancer human tumor 616215-338-R-J1-PDC patient-derived colon adenocarcinoma cell line growth inhibition [Asc]; details: second compound 0.1 µM; first compound 0.3 µM; active compounds read low;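 note: spheroids exposed to agents for seven days before readout; 100% = DMSO vehicle control viability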
quantity: viability, T/C (%)
Number only, in %; omit the unit.

| molecule | viability, T/C / % |
| --- | --- |
| NC(=O)C(=Cn1cnc(-c2cc(C(F)(F)F)cc(C(F)(F)F)c2)n1)c1cncnc1 + CNC(C)C(=O)NC1CN(S(=O)(=O)c2cccc(S(=O)(=O)N3CCC4CCC(C(=O)NC(c5ccccc5)c5ccccc5)N4C(=O)C(NC(=O)C(C)NC)C3)c2)CCC2CCC(C(=O)NC(c3ccccc3)c3ccccc3)N2C1=O | 68.5 |
| Cc1nc(N2CCC3(CC2)COC(C)C3N)c(CO)nc1Sc1ccnc(N)c1Cl (centres undefined) + Cc1c(S(C)(=O)=O)c(-c2cc(F)cc(N3CCN(c4ccc(NS(=O)(=O)c5ccc(NC(CCN6CCC(C(=O)OCCCP(=O)(O)O)CC6)CSc6ccccc6)c(S(=O)(=O)C(F)(F)F)c5)cc4)CC3)c2)c(-c2ccc(Cl)cc2)n1C(C)C | 95.9 |
| CCN1C(C(=O)NC23CCC(C(=O)O)(CC2)CC3)C(c2cccc(Cl)c2F)C2(C(=O)Nc3cc(Cl)ccc32)C12CCCCC2 (centres undefined) + CNC(C)C(=O)NC1CN(S(=O)(=O)c2cccc(S(=O)(=O)N3CCC4CCC(C(=O)NC(c5ccccc5)c5ccccc5)N4C(=O)C(NC(=O)C(C)NC)C3)c2)CCC2CCC(C(=O)NC(c3ccccc3)c3ccccc3)N2C1=O | 36.3 |

Switching to the query record.
Item: Cc1nc(N2CCC3(CC2)COC(C)C3N)c(CO)nc1Sc1ccnc(N)c1Cl (centres undefined) + CNC(C)C(=O)NC1CN(S(=O)(=O)c2cccc(S(=O)(=O)N3CCC4CCC(C(=O)NC(c5ccccc5)c5ccccc5)N4C(=O)C(NC(=O)C(C)NC)C3)c2)CCC2CCC(C(=O)NC(c3ccccc3)c3ccccc3)N2C1=O Test system: 616215-338-R-J1-PDC complex spheroid growth, % test/control Read-out: viability, T/C Value: ?;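 note: spheroids exposed to agents for seven days before readout; 100% = DMSO vehicle control viability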
115
